Source listed as ChEMBL document CHEMBL2203270.

Test system: Human immunodeficiency virus 2
EXPERIMENT_DESCRIPTION: Antiviral activity against HIV-2 ROD infected in MT4 cells assessed as inhibition of virus-induced cytopathicity
Format: functional, organism-based
ASSAY_CONDITIONS: Human immunodeficiency virus 2, ISOLATE ROD
pIC50: −log10 of the molar value.
Parameter: pIC50. Scope: all listed entries.

Solved entries (count: 3):
>>> value("COc1cc2c(cc1OC)C1=NN(C(=O)Nc3ccc(Cl)cc3)C(c3ccccc3)C1C2 (stereo not given)")
"< 4.55"
>>> value("COc1cc2c(cc1OC)C1=NN(C(=O)Nc3ccc(Cl)cc3)C(c3ccncc3)C1C2 (stereo not given)")
"< 5.32"
>>> value("COc1cc2c(cc1OC)C1=NN(C(N)=S)C(c3ccc(F)cc3)C1C2 (stereo not given)")
"< 4.40"

Record COc1cc2c(cc1OC)C1=NN(C(=O)Nc3ccc(F)c(Cl)c3)C(c3ccncc3)C1C2 (stereo not given) , field pIC50: < 4.53

GET /value?item= COc1ccc(C2C3Cc4cc(OC)c(OC)cc4C3=NN2C(=O)Nc2ccc(C)cc2C)cc1OC (stereo not given) &field=pIC50 returns < 3.84

Given item COc1cc2c(cc1OC)C1=NN(C(=O)Nc3ccc(Cl)cc3)C(c3ccc(F)cc3)C1C2 (stereo not given) , the value recorded as its pIC50 is < 4.59

pIC50 recorded for this compound, COc1cc2c(cc1OC)C1=NN(C(=O)Nc3ccc(Br)cc3)C(c3ccncc3)C1C2 (stereo not given) , is < 4.58

Entry COc1cc2c(cc1OC)C1=NN(C(N)=O)C(c3ccccc3)C1C2 (stereo not given) ; pIC50 = < 3.59

---

Tested on: Staphylococcus aureus
EXPERIMENT_DESCRIPTION: Antimicrobial activity against Staphylococcus aureus NCIM 2079 by broth dilution technique
Assay type: functional
MEASUREMENT_NAME: MBC

Below are worked cases with known answers.
>>> value("COc1cc2c(cc1OC)C1=NN(C(N)=O)C(c3ccncc3)C1C2 (stereo unspecified)")
"> 512 µg/mL"
>>> value("COc1ccc(C2C3Cc4cc(OC)c(OC)cc4C3=NN2C(N)=O)cc1OC (stereo unspecified)")
"> 512 µg/mL"
>>> value("COc1cc2c(cc1OC)C1=NN(C(N)=S)C(c3ccccc3)C1C2 (stereo unspecified)")
"> 512 µg/mL"
>>> value("COc1cc2c(cc1OC)C1=NN(C(N)=S)C(c3ccncc3)C1C2 (stereo unspecified)")
"> 512 µg/mL"
>>> value("COc1cc2c(cc1OC)C1=NN(C(N)=O)C(c3ccccc3)C1C2 (stereo unspecified)")
"> 512 µg/mL"

Briefly, MBC measured for COc1cc2c(cc1OC)C1=NN(C(N)=O)C(c3ccc(F)cc3)C1C2 (stereo unspecified) : 16 µg/mL

---

Tested on: Mus musculus
EXPERIMENT_DESCRIPTION: Neurotoxicity in mouse assessed as minimal motor impairment at 100 mg/kg, ip measured at 4 hr by rotarod test
Format: toxicity, organism-based
Design: dose 100 mg/kg, route intraperitoneal
ASSAY_CONDITIONS: in vivo
MEASUREMENT_NAME: Activity

Please review the entries below; each comes with its answer.
>>> value("COc1ccc(C2C3Cc4cc(OC)c(OC)cc4C3=NN2C(=O)Nc2ccc(F)c(Cl)c2)cc1OC (stereo unspecified)")
"Non-toxic"
>>> value("COc1cc2c(cc1OC)C1=NN(C(=O)Nc3ccc(Cl)cc3)C(c3ccc(F)cc3)C1C2 (stereo unspecified)")
"Non-toxic"
>>> value("COc1cc2c(cc1OC)C1=NN(C(=O)Nc3ccc(Cl)cc3)C(c3ccccc3Cl)C1C2 (stereo unspecified)")
"Non-toxic"
>>> value("COc1cc2c(cc1OC)C1=NN(C(=O)Nc3ccc(F)c(Cl)c3)C(c3ccccc3)C1C2 (stereo unspecified)")
"Non-toxic"
>>> value("COc1cc2c(cc1OC)C1=NN(C(=O)Nc3ccc(F)c(Cl)c3)C(c3ccccc3Cl)C1C2 (stereo unspecified)")
"Non-toxic"

Briefly, Activity measured for COc1cc2c(cc1OC)C1=NN(C(=O)Nc3ccc(F)c(Cl)c3)C(c3ccc(F)cc3)C1C2 (stereo unspecified) : Non-toxic

---

EXPERIMENT_DESCRIPTION: Cytotoxicity against mock-infected human MT4 cells assessed as decrease in cell viability by MTT assay
Assay type: cell-based
Property: CC50; scope: individual molecules
Could you give me the number in µM? Just the number is fine.

>>> value("COc1ccc(C2C3Cc4cc(OC)c(OC)cc4C3=NN2C(=O)Nc2ccc(F)cc2)cc1OC (stereo not given)")
208
>>> value("COc1ccc(C2C3Cc4cc(OC)c(OC)cc4C3=NN2C(N)=O)cc1OC (stereo not given)")
151

Just so you know, measured CC50 for COc1cc2c(cc1OC)C1=NN(C(N)=O)C(c3ccccc3)C1C2 (stereo not given) came out at 259

CC50 reported for this molecule COc1ccc(C2C3Cc4cc(OC)c(OC)cc4C3=NN2C(=O)Nc2ccc(F)cc2)cc1 (stereo not given) : 132

Entry under test: COc1cc2c(cc1OC)C1=NN(C(=O)Nc3ccc(Br)cc3)C(c3ccc(F)cc3)C1C2 (stereo not given) . Its CC50 was 108

Reported CC50 for COc1ccc(C2C3Cc4cc(OC)c(OC)cc4C3=NN2C(=O)Nc2c(C)cccc2C)cc1 (stereo not given) was 169

Briefly, CC50 measured for COc1cc2c(cc1OC)C1=NN(C(N)=S)C(c3ccccc3Cl)C1C2 (stereo not given) : 6.87

CC50 measured on COc1cc2c(cc1OC)C1=NN(C(=O)Nc3ccc(Br)cc3)C(c3ccccc3)C1C2 (stereo not given) = 86

---

EXPERIMENT_DESCRIPTION: Cytotoxicity against mock-infected human MT4 cells assessed as decrease in cell viability by MTT assay
Type: cell-based
Classes by CC50: low (below 10 µM), medium (10 µM to below 40 µM), high (40 µM or more)

Past entries and their recorded results:
>>> label_class("COc1cc2c(cc1OC)C1=NN(C(N)=O)C(c3ccccc3Cl)C1C2 (centres undefined)")
"low"
>>> label_class("COc1cc2c(cc1OC)C1=NN(C(=O)Nc3c(C)cccc3C)C(c3ccccc3Cl)C1C2 (centres undefined)")
"high"
>>> label_class("COc1cc2c(cc1OC)C1=NN(C(=O)Nc3c(C)cccc3C)C(c3ccc(F)cc3)C1C2 (centres undefined)")
"low"

QUERY: Which CC50 band matches COc1cc2c(cc1OC)C1=NN(C(=O)Nc3ccc(C)cc3C)C(c3ccccc3)C1C2 (centres undefined) ?
RESULT: medium

QUERY: Determine which band this molecule sits in: COc1cc2c(cc1OC)C1=NN(C(N)=S)C(c3ccccc3)C1C2 (centres undefined)
RESULT: medium

---

System: Staphylococcus aureus
EXPERIMENT_DESCRIPTION: Antimicrobial activity against Staphylococcus aureus NCIM 2079 by broth dilution technique
Assay type: functional
MEASUREMENT_NAME: MBC (µg/mL)
Kindly provide the numeric value in µg/mL only, without the unit symbol.

Examples with answers:
>>> value("COc1cc2c(cc1OC)C1=NN(C(N)=S)C(c3ccccc3Cl)C1C2 (stereo not given)")
128
>>> value("COc1cc2c(cc1OC)C1=NN(C(N)=S)C(c3ccc(F)cc3)C1C2 (stereo not given)")
8

Now, please, on to the next compound.
Measured MBC for this entry COc1cc2c(cc1OC)C1=NN(C(N)=O)C(c3ccccc3Cl)C1C2 (stereo not given) on Staphylococcus aureus: 256

---

Tested on: Mus musculus
EXPERIMENT_DESCRIPTION: Neurotoxicity in mouse assessed as minimal motor impairment at 100 mg/kg, ip measured at 1 hr by rotarod test
Format: toxicity, organism-based
Parameters: dose 100 mg/kg, route intraperitoneal
ASSAY_CONDITIONS: in vivo
MEASUREMENT_NAME: Activity

// solved cases for Activity follow
>>> value("COc1ccc(C2C3Cc4cc(OC)c(OC)cc4C3=NN2C(=O)Nc2ccc(F)c(Cl)c2)cc1OC (stereo unspecified)")
"Non-toxic"
>>> value("COc1cc2c(cc1OC)C1=NN(C(=O)Nc3ccc(F)c(Cl)c3)C(c3ccccc3Cl)C1C2 (stereo unspecified)")
"Toxic"
>>> value("COc1cc2c(cc1OC)C1=NN(C(=O)Nc3ccc(F)c(Cl)c3)C(c3ccccc3)C1C2 (stereo unspecified)")
"Non-toxic"
>>> value("COc1cc2c(cc1OC)C1=NN(C(=O)Nc3ccc(F)c(Cl)c3)C(c3ccc(F)cc3)C1C2 (stereo unspecified)")
"Non-toxic"
>>> value("COc1cc2c(cc1OC)C1=NN(C(=O)Nc3ccc(Cl)cc3)C(c3ccc(F)cc3)C1C2 (stereo unspecified)")
"Non-toxic"

Below: the item to evaluate.
Value sought: Activity, system Mus musculus, item COc1cc2c(cc1OC)C1=NN(C(=O)Nc3ccc(Cl)cc3)C(c3ccccc3Cl)C1C2 (stereo unspecified) . Result: Non-toxic
